// provenance: ChEMBL document CHEMBL3351714

- system.under.test: D(1A) dopamine receptor (Homo sapiens, UniProt P21728)
- Sequence (P21728 whole entry): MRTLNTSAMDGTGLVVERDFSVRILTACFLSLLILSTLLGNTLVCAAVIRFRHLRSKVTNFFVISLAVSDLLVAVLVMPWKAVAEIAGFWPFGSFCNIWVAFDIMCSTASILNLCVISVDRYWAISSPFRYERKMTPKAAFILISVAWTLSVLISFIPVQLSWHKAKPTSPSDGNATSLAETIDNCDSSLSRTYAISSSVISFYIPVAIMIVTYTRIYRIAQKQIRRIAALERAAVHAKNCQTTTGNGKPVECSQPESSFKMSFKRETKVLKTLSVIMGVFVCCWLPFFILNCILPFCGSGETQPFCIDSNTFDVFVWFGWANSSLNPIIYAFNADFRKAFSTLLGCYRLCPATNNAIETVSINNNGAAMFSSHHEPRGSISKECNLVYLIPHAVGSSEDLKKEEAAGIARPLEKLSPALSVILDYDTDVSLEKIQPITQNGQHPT
- assay.comment: Antagonist activity at D1 receptor (unknown origin) after 40 mins by [35S]GTP-gammaS binding assay in presence of SKF38393
IC50 values by entry
measure.name: IC50 (nM)

> print(dat)
                               entry.smiles                         system.under.test  measure.name  value
1  CCCCc1cc2c(s1)C[C@H]1c3cc(O)c(OC)cc3CCN1C2  D(1A) dopamine receptor (Homo sapiens, UniProt P21728)          IC50    600
2  COc1cc2c(cc1O)[C@@H]1Cc3sc(CC(C)C)cc3CN1CC2  D(1A) dopamine receptor (Homo sapiens, UniProt P21728)          IC50   2010

* * *

- system.under.test: 5-hydroxytryptamine receptor 2A (Homo sapiens) (UniProt P28223)
- Sequence (P28223 whole entry): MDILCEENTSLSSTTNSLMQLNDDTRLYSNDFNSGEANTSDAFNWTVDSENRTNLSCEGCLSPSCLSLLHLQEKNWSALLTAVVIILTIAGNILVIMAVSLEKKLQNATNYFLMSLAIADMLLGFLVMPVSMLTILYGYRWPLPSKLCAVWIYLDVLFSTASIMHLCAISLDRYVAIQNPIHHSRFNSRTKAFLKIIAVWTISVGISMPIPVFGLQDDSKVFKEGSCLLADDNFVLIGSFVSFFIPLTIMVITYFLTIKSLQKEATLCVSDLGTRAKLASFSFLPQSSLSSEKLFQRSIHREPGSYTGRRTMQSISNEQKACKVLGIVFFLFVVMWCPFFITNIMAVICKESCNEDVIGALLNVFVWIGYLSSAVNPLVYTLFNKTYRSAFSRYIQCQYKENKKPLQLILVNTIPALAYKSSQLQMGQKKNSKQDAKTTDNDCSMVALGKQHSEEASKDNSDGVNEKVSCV
- assay.comment: Displacement of [3H]Ketanserin from 5HT2A receptor (unknown origin) transfected in HEK293T cells at 10 uM after 15 mins by liquid scintillation counting analysis
- Assay type: cell-based
- conditions: HEK-293T
inhibition values by entry
measure.name: inhibition (%)

> print(dat)
                                    compound                         system.under.test  measure.name  value
 1       COc1cc2c(cc1O)[C@@H]1Cc3sccc3CN1CC2  5-hydroxytryptamine receptor 2A (Homo sapiens) (UniProt P28223)    inhibition   82.3
 2  COc1cc2c(cc1O)[C@@H]1Cc3sc(CC4CCC4)cc3CN1CC2  5-hydroxytryptamine receptor 2A (Homo sapiens) (UniProt P28223)    inhibition   44.9
 3  COc1cc2c(cc1O)[C@@H]1Cc3sc(CCC(C)C)cc3CN1CC2  5-hydroxytryptamine receptor 2A (Homo sapiens) (UniProt P28223)    inhibition   50.5
 4  COc1cc2c(cc1O)[C@@H]1Cc3sc(CC(C)Cl)cc3CN1CC2 (stereo partly specified)  5-hydroxytryptamine receptor 2A (Homo sapiens) (UniProt P28223)    inhibition   52.1
 5  CCCCc1cc2c(s1)C[C@H]1c3cc(O)c(OC)cc3CCN1C2  5-hydroxytryptamine receptor 2A (Homo sapiens) (UniProt P28223)    inhibition   53.3
 6  COc1cc2c(cc1O)[C@@H]1Cc3sc(CC(C)C)cc3CN1CC2  5-hydroxytryptamine receptor 2A (Homo sapiens) (UniProt P28223)    inhibition   50.3
 7  CCCCCc1cc2c(s1)C[C@H]1c3cc(O)c(OC)cc3CCN1C2  5-hydroxytryptamine receptor 2A (Homo sapiens) (UniProt P28223)    inhibition   45.9
 8  CCCc1cc2c(s1)C[C@H]1c3cc(O)c(OC)cc3CCN1C2  5-hydroxytryptamine receptor 2A (Homo sapiens) (UniProt P28223)    inhibition   29.6
 9  COc1cc2c(cc1O)[C@@H]1Cc3sc(CCCCl)cc3CN1CC2  5-hydroxytryptamine receptor 2A (Homo sapiens) (UniProt P28223)    inhibition   62.1
10  COc1cc2c(cc1O)[C@@H]1Cc3sc(CCCCCl)cc3CN1CC2  5-hydroxytryptamine receptor 2A (Homo sapiens) (UniProt P28223)    inhibition   39.6
11  COc1cc2c(cc1O)[C@@H]1Cc3sc(CCCl)cc3CN1CC2  5-hydroxytryptamine receptor 2A (Homo sapiens) (UniProt P28223)    inhibition   34.8
12  COc1cc2c(cc1O)[C@@H]1Cc3sc(CC(C)(C)C)cc3CN1CC2  5-hydroxytryptamine receptor 2A (Homo sapiens) (UniProt P28223)    inhibition   19.3
13  CCc1cc2c(s1)C[C@H]1c3cc(O)c(OC)cc3CCN1C2  5-hydroxytryptamine receptor 2A (Homo sapiens) (UniProt P28223)    inhibition   45.1
14  COc1cc2c(cc1O)[C@@H]1Cc3sc(CC4CC4)cc3CN1CC2  5-hydroxytryptamine receptor 2A (Homo sapiens) (UniProt P28223)    inhibition   39.3
15  COc1cc2c(cc1O)[C@@H]1Cc3sc(CCCC(C)C)cc3CN1CC2  5-hydroxytryptamine receptor 2A (Homo sapiens) (UniProt P28223)    inhibition   34.9
16  CCC(C)Cc1cc2c(s1)C[C@H]1c3cc(O)c(OC)cc3CCN1C2 (stereo partly specified)  5-hydroxytryptamine receptor 2A (Homo sapiens) (UniProt P28223)    inhibition   33.4

* * *

- system.under.test: 5-hydroxytryptamine receptor 1A (Homo sapiens, UniProt P08908)
- assay.comment: Agonist activity at 5HT1A receptor (unknown origin) after 20 mins by [35S]GTP-gammaS binding assay
- Format: functional
measure.name: EC50 (nM)

> print(dat)
                               entry.smiles  result.unit  value
1  COc1cc2c(cc1O)[C@@H]1Cc3sc(CC(C)C)cc3CN1CC2           nM    590
2  CCCCc1cc2c(s1)C[C@H]1c3cc(O)c(OC)cc3CCN1C2           nM    850

* * *

- system.under.test: D(2) dopamine receptor (Homo sapiens, UniProt P14416)
- Sequence (P14416 whole entry): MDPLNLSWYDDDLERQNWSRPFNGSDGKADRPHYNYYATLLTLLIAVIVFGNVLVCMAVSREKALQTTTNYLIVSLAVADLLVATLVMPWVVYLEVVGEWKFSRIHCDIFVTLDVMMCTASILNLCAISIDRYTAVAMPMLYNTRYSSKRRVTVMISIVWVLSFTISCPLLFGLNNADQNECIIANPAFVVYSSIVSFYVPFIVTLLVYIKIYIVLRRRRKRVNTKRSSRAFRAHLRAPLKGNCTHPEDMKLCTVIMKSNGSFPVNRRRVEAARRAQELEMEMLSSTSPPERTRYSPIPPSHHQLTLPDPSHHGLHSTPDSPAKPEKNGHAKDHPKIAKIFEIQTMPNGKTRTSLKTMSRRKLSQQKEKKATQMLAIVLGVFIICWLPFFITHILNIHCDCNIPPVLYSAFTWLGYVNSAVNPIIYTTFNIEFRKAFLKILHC
- assay.comment: Displacement of [3H]Spiperone from D2 receptor (unknown origin) transfected in HEK293T cells after 50 mins by liquid scintillation counting analysis
pKi: −log10 of the molar value.
pKi values by entry
measure.name: pKi

> print(dat)
                                    compound  value
 1  COc1cc2c(cc1O)[C@@H]1Cc3sc(CC4CCC4)cc3CN1CC2   7.47
 2  COc1cc2c(cc1O)[C@@H]1Cc3sc(CCCCCl)cc3CN1CC2   7.92
 3  CCc1cc2c(s1)C[C@H]1c3cc(O)c(OC)cc3CCN1C2   7.39
 4  CCC(C)Cc1cc2c(s1)C[C@H]1c3cc(O)c(OC)cc3CCN1C2 (stereo partly specified)   7.54
 5       COc1cc2c(cc1O)[C@@H]1Cc3sccc3CN1CC2   7.06
 6  COc1cc2c(cc1O)[C@@H]1Cc3sc(CCCl)cc3CN1CC2   7.46
 7  COc1cc2c(cc1O)[C@@H]1Cc3sc(CC(C)(C)C)cc3CN1CC2   6.72
 8  CCCc1cc2c(s1)C[C@H]1c3cc(O)c(OC)cc3CCN1C2   7.41
 9  COc1cc2c(cc1O)[C@@H]1Cc3sc(CCCCl)cc3CN1CC2   7.74
10  COc1cc2c(cc1O)[C@@H]1Cc3sc(CC4CC4)cc3CN1CC2   7.94
11  COc1cc2c(cc1O)[C@@H]1Cc3sc(CC(C)C)cc3CN1CC2   8.12
12  CCCCCc1cc2c(s1)C[C@H]1c3cc(O)c(OC)cc3CCN1C2   7.33
13  CCCCc1cc2c(s1)C[C@H]1c3cc(O)c(OC)cc3CCN1C2   7.75
14  COc1cc2c(cc1O)[C@@H]1Cc3sc(CC(C)Cl)cc3CN1CC2 (stereo partly specified)   7.78
15  COc1cc2c(cc1O)[C@@H]1Cc3ccc(O)c(OC)c3CN1CC2   6.98
16  COc1cc2c(cc1O)[C@@H]1Cc3sc(CCC(C)C)cc3CN1CC2   7.10

* * *

Ki values by entry
- system.under.test: 5-hydroxytryptamine receptor 1A (Homo sapiens, UniProt P08908)
- Sequence (P08908 whole entry): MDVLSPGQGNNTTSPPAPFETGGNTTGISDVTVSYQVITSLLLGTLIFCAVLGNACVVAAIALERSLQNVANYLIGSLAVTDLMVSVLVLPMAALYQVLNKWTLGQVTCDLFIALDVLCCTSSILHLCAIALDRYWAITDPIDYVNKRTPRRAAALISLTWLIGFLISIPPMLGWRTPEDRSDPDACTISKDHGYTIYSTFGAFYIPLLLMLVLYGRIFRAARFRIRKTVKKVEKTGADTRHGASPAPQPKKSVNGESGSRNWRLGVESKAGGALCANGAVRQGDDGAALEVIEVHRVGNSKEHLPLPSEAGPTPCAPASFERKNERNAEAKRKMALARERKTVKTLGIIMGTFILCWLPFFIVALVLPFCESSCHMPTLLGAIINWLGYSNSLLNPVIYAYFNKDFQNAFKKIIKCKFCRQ
- assay.comment: Displacement of [3H]8-OH-DPAT from 5HT1A receptor (unknown origin) transfected in HEK293T cells after 50 mins by liquid scintillation counting analysis
measure.name: Ki (nM)

> print(dat)
                                   compound  result.unit  value
1  COc1cc2c(cc1O)[C@@H]1Cc3sc(CCCCCl)cc3CN1CC2           nM    655
2  COc1cc2c(cc1O)[C@@H]1Cc3sc(CC4CCC4)cc3CN1CC2           nM    778
3  COc1cc2c(cc1O)[C@@H]1Cc3sc(CC4CC4)cc3CN1CC2           nM    175
4  COc1cc2c(cc1O)[C@@H]1Cc3sc(CC(C)Cl)cc3CN1CC2 (some centres undefined)           nM    285
